# maps each entry to its Total Mean Fluorescent Intensity
Biological target: T1, human CD20 (human, UniProt P11836 1-297)
T1 construct: On human CD20-transfected MG87 cells, or endogenous on Daudi, RL and Raji cells; also called hCD20
T1 sequence: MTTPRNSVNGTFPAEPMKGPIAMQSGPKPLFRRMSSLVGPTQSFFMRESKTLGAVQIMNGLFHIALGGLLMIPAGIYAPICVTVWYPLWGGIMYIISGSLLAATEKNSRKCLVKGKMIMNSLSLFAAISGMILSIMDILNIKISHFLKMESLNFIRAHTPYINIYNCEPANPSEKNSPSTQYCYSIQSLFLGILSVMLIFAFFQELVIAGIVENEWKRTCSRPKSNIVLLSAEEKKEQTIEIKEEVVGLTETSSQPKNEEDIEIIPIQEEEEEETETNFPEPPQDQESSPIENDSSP
Test: flow cytometry, hCD20-transfected MG87 cells
Procedure: Briefly, parental MG87 and human CD20-transfected MG87 cells were incubated for 30 min at 4° C. with each of the 15 human antibodies and the two control antibodies, followed by incubation with PE-conjugated anti-human IgG antibody. Binding was assessed by flow cytometry. Fluorescence intensities were compared with binding to the parental cell line and control isotype-matched sample.
Simply state the number, no unit and no words.

The recorded Total Mean Fluorescent Intensity for entry 6F6-1 (antibody, V domains shown, Fully human IgG, constant region not specified; also called 6F6-1N) VH: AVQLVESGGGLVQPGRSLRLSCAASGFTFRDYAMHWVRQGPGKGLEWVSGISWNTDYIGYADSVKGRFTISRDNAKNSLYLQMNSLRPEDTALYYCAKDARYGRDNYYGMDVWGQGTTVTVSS VL: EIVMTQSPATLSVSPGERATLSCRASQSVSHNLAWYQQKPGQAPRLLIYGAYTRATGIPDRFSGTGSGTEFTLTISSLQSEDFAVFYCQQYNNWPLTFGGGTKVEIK equals 3390

The recorded Total Mean Fluorescent Intensity for entry 2C11-4 (antibody, V domains shown, Fully human IgG, constant region not specified; also called 2C11-4N) VH: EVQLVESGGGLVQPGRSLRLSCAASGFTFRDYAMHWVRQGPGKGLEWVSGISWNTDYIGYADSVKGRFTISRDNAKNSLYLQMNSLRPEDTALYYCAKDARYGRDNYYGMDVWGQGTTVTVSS VL: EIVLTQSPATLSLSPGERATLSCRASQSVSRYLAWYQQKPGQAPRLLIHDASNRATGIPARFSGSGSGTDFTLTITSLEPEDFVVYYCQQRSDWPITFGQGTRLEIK equals 2010

The recorded Total Mean Fluorescent Intensity for entry 3H7-6 (antibody, V domains shown, Fully human IgG, constant region not specified; also called 3H7-6N) VH: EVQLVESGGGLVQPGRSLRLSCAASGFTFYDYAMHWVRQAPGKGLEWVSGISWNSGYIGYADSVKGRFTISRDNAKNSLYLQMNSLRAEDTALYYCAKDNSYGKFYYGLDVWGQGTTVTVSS VL: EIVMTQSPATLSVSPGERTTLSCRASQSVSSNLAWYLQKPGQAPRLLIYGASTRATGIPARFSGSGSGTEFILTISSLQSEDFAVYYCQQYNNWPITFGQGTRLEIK equals 3300
